Catalogue of plant injury at 500 g/ha readings, one per entry.
# Test system: wheat (Triticum aestivum)
# ASSAY NOTES: Test A postemergence
# Format: in vivo
# CONDITION PARAMETERS: Triticum aestivum, post-emergence, 240 h, 500 g ai/ha, postemergence; 0 to 100 scale, 0 is no effect, 100 is complete control; read-out: Wheat plant response rating

# STRUCTURE AS SMILES, plant injury at 500 g/ha [%]
records = [
    ("O=C1NC[C@H](c2csc(C(F)F)c2)[C@H]1C(=O)Nc1ccccc1F", 20),
    ("CCc1cc([C@H]2CNC(=O)[C@@H]2C(=O)Nc2cccc(F)c2F)cs1", 50),
    ("CSc1ccccc1NC(=O)[C@H]1C(=O)N(C)C[C@@H]1c1ccc(OC(F)F)cc1", 40),
]
